# run_description: Inhibition of reverse transcriptase K103N mutant in HIV1 infected in human MT4 cells assessed as protection against virus induced cytotoxicity after 5 days by MTT assay
Overview of recorded EC50 for various molecules
metric_name: EC50 (nM)

molecular_string	unit_text	value_relation_sign	value_reported
Cc1cc(C)cc(S(=O)(=O)n2c(SCC(=O)Nc3ccc(S(C)(=O)=O)cc3)nc3ccccc32)c1	nM	=	1190
Cc1cc(C)cc(S(=O)(=O)n2c(OCC(=O)Nc3ccc(S(C)(=O)=O)cc3Cl)nc3ccccc32)c1	nM	>	33900
COC(=O)c1ccc(NC(=O)CSc2nc3ccccc3n2S(=O)(=O)c2cc(C)cc(C)c2)cc1	nM	=	960
Cc1ccc(NC(=O)CSc2nc3ccccc3n2S(=O)(=O)c2cc(C)cc(C)c2)cc1	nM	>	3130
Cc1cc(C)cc(S(=O)(=O)n2c(SCC(=O)Nc3ccc(S(N)(=O)=O)cc3)nc3ccccc32)c1	nM	=	670
Cc1cc(C)cc(S(=O)(=O)n2c(SCC(=O)Nc3ccc(C(=O)O)cc3)nc3ccccc32)c1	nM	=	11800
